Data origin: BindingDB's records for PubMed 20126400

pKi: −log10 of the molar value.
Let's go through some pKi measurements on Sodium-dependent serotonin transporter (Homo sapiens, UniProt P31645) together.
Sequence (P31645 whole entry): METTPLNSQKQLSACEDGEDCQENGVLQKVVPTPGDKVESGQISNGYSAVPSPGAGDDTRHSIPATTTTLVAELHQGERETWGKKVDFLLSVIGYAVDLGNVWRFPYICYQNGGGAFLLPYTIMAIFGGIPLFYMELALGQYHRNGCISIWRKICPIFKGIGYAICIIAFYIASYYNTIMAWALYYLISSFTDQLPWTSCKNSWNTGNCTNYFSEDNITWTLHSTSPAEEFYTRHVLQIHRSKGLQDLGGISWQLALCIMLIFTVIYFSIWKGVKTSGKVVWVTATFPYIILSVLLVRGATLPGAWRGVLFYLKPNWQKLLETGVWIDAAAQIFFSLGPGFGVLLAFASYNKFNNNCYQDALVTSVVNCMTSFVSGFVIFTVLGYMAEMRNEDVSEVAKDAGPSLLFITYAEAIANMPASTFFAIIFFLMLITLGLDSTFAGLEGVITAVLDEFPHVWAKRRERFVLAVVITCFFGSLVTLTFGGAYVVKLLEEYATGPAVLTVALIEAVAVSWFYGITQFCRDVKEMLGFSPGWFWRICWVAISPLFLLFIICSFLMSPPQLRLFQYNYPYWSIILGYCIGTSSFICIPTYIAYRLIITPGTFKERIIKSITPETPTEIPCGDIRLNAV

# Compound, pKi
rows = [
    ("CCc1cc(OC)c(CC(C)N)cc1OC (stereo unspecified)", "< 5.00"),
    ("CCSc1cc(OC)c(CC(N)CC)cc1OC (stereo unspecified)", "< 5.00"),
    ("CC(N)Cc1ccc2c(c1)OCO2 (stereo unspecified)", "< 5.00"),
    ("CCN(CC)C(=O)[C@@H]1C=C2c3cccc4[nH]cc(c34)C[C@H]2N(C)C1 [[N-methyl-3H]LSD]", "< 5.00"),
    ("COc1cc(CCN)cc(OC)c1OC", "< 5.00"),
    ("COC(=O)[C@@H]1C[C@H](OC(C)=O)C(=O)[C@H]2[C@@]1(C)CC[C@H]1C(=O)O[C@H](c3ccoc3)C[C@]21C", "< 5.00"),
    ("COc1cc(OC)c(OC)cc1CC(C)N (stereo unspecified)", "< 5.00"),
    ("COc1ccc2[nH]cc(CCN(C(C)C)C(C)C)c2c1", 5.60),
    ("CCCN(CCC)CCc1c[nH]c2ccccc12", 6.80),
    ("CCSc1cc(OC)c(CCN)cc1OC", "< 5.00"),
    ("CN(C)CCc1c[nH]c2cccc(O)c12 [4-hydroxy-N,N-dimethyltryptamine]", 6.07),
]

====

# Target Or Test System: 5-hydroxytryptamine receptor 1B (Homo sapiens, UniProt P28222)
# Sequence (P28222 whole entry): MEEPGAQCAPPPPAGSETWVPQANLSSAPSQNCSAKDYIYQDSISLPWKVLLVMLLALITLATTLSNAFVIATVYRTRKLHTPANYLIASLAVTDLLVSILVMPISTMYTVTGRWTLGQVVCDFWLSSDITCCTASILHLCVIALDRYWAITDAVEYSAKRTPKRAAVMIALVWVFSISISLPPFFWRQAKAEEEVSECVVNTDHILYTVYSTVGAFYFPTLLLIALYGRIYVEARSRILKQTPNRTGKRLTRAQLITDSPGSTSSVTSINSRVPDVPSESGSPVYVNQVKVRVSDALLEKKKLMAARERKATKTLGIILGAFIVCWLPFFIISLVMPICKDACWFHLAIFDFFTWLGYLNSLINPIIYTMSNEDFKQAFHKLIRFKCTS
pKi: −log10 of the molar value.
Use 6 as the dividing line for pKi, with the line itself on the condition met side and lower values as condition not met.

# Molecule, Label Class
measured = [
    ("C[C@@H]1C[C@H](C)N1C(=O)C1C=C2c3cccc4[nH]cc(c34)C[C@H]2N(C)C1 (stereo partly drawn) [cis-2a]", "condition met"),
    ("CN(C)CCc1c[nH]c2ccccc12", "condition not met"),
    ("CC(N)Cc1ccc2c(c1)OCO2 (stereo not drawn)", "condition not met"),
    ("CCSc1cc(OC)c(CC(C)N)cc1OC (stereo not drawn)", "condition not met"),
    ("CCc1cc(OC)c(CCN)cc1OC", "condition met"),
    ("CCSc1cc(OC)c(CC(N)CC)cc1OC (stereo not drawn)", "condition not met"),
    ("COc1cc(OC)c(OC)cc1CC(C)N (stereo not drawn)", "condition not met"),
    ("CNC(C)Cc1ccc2c(c1)OCO2 (stereo not drawn)", "condition not met"),
    ("CN(C)CCc1c[nH]c2cc(F)ccc12", "condition met"),
    ("COC(=O)[C@@H]1C[C@H](OC(C)=O)C(=O)[C@H]2[C@@]1(C)CC[C@H]1C(=O)O[C@H](c3ccoc3)C[C@]21C", "condition not met"),
    ("NCCc1c2c(c(Br)c3c1OCC3)OCC2", "condition met"),
    ("CCc1[nH]c2ccc(OC)cc2c1CCN(C)C", "condition not met"),
    ("COc1cc(CC(C)N)cc(OC)c1OC (stereo not drawn)", "condition not met"),
    ("COc1cc(CC(C)N)c(OC)cc1C (stereo not drawn)", "condition not met"),
    ("C[C@@H]1C[C@@H](C)N1C(=O)C1C=C2c3cccc4[nH]cc(c34)C[C@H]2N(C)C1 (stereo partly drawn) [ss-2c]", "condition met"),
    ("COc1ccc2[nH]c(C)c(CCN(C)C)c2c1", "condition not met"),
    ("CC[C@H]1C[C@@H]2C[C@H]3c4[nH]c5ccc(OC)cc5c4CCN(C2)[C@@H]13", "condition not met"),
    ("CCc1cc(OC)c(CC(C)N)cc1OC (stereo not drawn)", "condition not met"),
    ("C[C@@H]1C[C@@H](C)N1C(=O)C1C=C2c3cccc4[nH]cc(c34)C[C@H]2N(C)C1 (stereo partly drawn) [rr-2b]", "condition met"),
    ("CCOc1cc(OC)c(CC(C)N)cc1OC (stereo not drawn)", "condition not met"),
    ("COc1ccc2[nH]cc(CCN(C)C(C)C)c2c1", "condition met"),
    ("CC(C)N(CCc1c[nH]c2ccccc12)C(C)C", "condition not met"),
    ("COc1cc(CCN)cc(OC)c1OC", "condition not met"),
    ("COc1cc(CCN)c(OC)cc1Br", "condition met"),
    ("CCN(CC)C(=O)[C@@H]1C=C2c3cccc4[nH]cc(c34)C[C@H]2N(C)C1 [[N-methyl-3H]LSD]", "condition met"),
]

====

# Target Or Test System: Sodium-dependent noradrenaline transporter (Homo sapiens)
# Sequence (P23975 whole entry): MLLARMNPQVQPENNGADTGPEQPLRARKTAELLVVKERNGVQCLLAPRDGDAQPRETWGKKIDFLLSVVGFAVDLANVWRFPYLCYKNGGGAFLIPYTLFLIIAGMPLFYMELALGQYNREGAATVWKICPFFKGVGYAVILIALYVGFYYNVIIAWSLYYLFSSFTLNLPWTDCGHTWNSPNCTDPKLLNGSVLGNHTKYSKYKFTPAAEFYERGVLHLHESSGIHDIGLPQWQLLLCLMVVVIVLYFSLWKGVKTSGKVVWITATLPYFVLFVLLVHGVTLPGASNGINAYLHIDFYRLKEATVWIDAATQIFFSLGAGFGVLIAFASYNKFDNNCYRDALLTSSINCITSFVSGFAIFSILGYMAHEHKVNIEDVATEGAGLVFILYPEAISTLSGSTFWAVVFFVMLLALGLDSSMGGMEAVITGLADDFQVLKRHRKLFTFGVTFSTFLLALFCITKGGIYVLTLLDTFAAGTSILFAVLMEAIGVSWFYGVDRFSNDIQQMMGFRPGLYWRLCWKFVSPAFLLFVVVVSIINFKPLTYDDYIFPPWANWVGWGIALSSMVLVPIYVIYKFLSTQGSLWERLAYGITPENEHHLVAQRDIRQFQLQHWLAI

# Compound, Ki
records = [
    ("CCSc1cc(OC)c(CC(C)N)cc1OC (stereo unspecified)", "> 10 µM"),
    ("COc1cc(CC(C)N)c(OC)cc1C (stereo unspecified)", "> 10 µM"),
    ("C[C@@H]1C[C@H](C)N1C(=O)C1C=C2c3cccc4[nH]cc(c34)C[C@H]2N(C)C1 (stereo partly drawn) [cis-2a]", "> 10 µM"),
    ("CCc1cc(OC)c(CC(C)N)cc1OC (stereo unspecified)", "> 10 µM"),
    ("COc1ccc2[nH]cc(CCN(C(C)C)C(C)C)c2c1", "> 10 µM"),
    ("CN(C)CCc1c[nH]c2cccc(O)c12 [4-hydroxy-N,N-dimethyltryptamine]", "> 10 µM"),
    ("CNC(C)Cc1ccc2c(c1)OCO2 (stereo unspecified)", "> 10 µM"),
    ("CCOc1cc(OC)c(CC(C)N)cc1OC (stereo unspecified)", "> 10 µM"),
    ("COc1cc(CCN)c(OC)cc1Br", "> 10 µM"),
    ("NCCc1c2c(c(Br)c3c1OCC3)OCC2", "> 10 µM"),
    ("COc1cc(CC(C)N)c(OC)cc1Br (stereo unspecified)", "> 10 µM"),
    ("CCN(CC)C(=O)[C@@H]1C=C2c3cccc4[nH]cc(c34)C[C@H]2N(C)C1 [[N-methyl-3H]LSD]", "> 10 µM"),
    ("COc1cc(OC)c(OC)cc1CC(C)N (stereo unspecified)", "> 10 µM"),
    ("COc1ccc2[nH]cc(CCN(C)C(C)C)c2c1", "> 10 µM"),
    ("CC(C)N(CCc1c[nH]c2ccccc12)C(C)C", "> 10 µM"),
    ("COc1cc(CCN)cc(OC)c1OC", "> 10 µM"),
    ("COc1cc(CC(C)N)cc(OC)c1OC (stereo unspecified)", "> 10 µM"),
    ("CN(C)CCc1c[nH]c2cc(F)ccc12", "> 10 µM"),
    ("CCc1cc(OC)c(CCN)cc1OC", "> 10 µM"),
    ("CCSc1cc(OC)c(CC(N)CC)cc1OC (stereo unspecified)", "> 10 µM"),
    ("CC(N)Cc1ccc2c(c1)OCO2 (stereo unspecified)", "> 10 µM"),
    ("CCCN(CCC)CCc1c[nH]c2ccccc12", "> 10 µM"),
    ("COc1ccc2[nH]cc(CCN(C)C)c2c1", "2.86 µM"),
    ("C[C@@H]1C[C@@H](C)N1C(=O)C1C=C2c3cccc4[nH]cc(c34)C[C@H]2N(C)C1 (stereo partly specified)", "> 10 µM"),
    ("CCSc1cc(OC)c(CCN)cc1OC", "> 10 µM"),
    ("CN(C)CCc1c[nH]c2ccccc12", "> 10 µM"),
]

====

# Target Or Test System: 5-hydroxytryptamine receptor 1D (Homo sapiens)
# Sequence (P28221 whole entry): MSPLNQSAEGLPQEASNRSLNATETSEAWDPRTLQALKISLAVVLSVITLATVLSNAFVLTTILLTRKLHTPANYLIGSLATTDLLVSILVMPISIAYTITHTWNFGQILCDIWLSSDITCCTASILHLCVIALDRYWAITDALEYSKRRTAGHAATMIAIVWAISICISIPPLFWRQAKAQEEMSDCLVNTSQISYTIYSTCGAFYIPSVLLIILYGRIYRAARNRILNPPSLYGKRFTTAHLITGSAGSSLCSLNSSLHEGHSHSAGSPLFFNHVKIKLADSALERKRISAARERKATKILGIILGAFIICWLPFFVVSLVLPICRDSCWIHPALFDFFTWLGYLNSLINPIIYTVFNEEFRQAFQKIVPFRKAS
pKi: −log10 of the molar value.
Label class 0 if pKi falls below 6; label class 1 in every other case.

# Molecule, Label Class
measured = [
    ("CCSc1cc(OC)c(CC(C)N)cc1OC (configuration not stated)", "class 0"),
    ("CCN(CC)C(=O)[C@@H]1C=C2c3cccc4[nH]cc(c34)C[C@H]2N(C)C1 [[N-methyl-3H]LSD]", "class 1"),
    ("COc1cc(CCN)cc(OC)c1OC [3,4,5-trimethoxyphenylethylamine]", "class 0"),
    ("CC(C)N(CCc1c[nH]c2ccccc12)C(C)C [dipt]", "class 0"),
    ("CNC(C)Cc1ccc2c(c1)OCO2 (configuration not stated) [mdma]", "class 0"),
    ("COc1cc(CC(C)N)cc(OC)c1OC (configuration not stated)", "class 0"),
    ("COc1cc(CC(C)N)c(OC)cc1C (configuration not stated)", "class 1"),
    ("CCSc1cc(OC)c(CC(N)CC)cc1OC (configuration not stated)", "class 0"),
    ("CCOc1cc(OC)c(CC(C)N)cc1OC (configuration not stated)", "class 0"),
    ("COc1cc(CC(C)N)c(OC)cc1Br (configuration not stated)", "class 1"),
    ("C[C@@H]1C[C@@H](C)N1C(=O)C1C=C2c3cccc4[nH]cc(c34)C[C@H]2N(C)C1 (some centres not stated) [rr-2b]", "class 1"),
    ("CCc1cc(OC)c(CC(C)N)cc1OC (configuration not stated)", "class 0"),
]
